The values you see were collected from ChEMBL document CHEMBL4513216.

What INHIBITION was measured for each of the following?
# Test system: Plasmodium berghei
# measurementNotes: Screen against P. berghei liver stage (PbLuc), transformed with Luciferase, at 10uM
# Assay type: functional, HepG2
# cond: tested at 10 uM
In all, about 69,000 compounds went through this assay and about 8,600 (12%) showed an effect of 50% or more. The full list was thinned out, with strong results kept by preference.
Value expressed in %; do not type the unit.

Exercise: Report value: INHIBITION, system: Plasmodium berghei, compound: "CCNC(=O)[C@@H]1C[C@H](NC(=O)c2cc(CC)n[nH]2)CN1Cc1ccsc1"
Key: -20.5

Exercise: Recall the reported INHIBITION of Cc1ccc(CNCC2CCN(CC(O)c3ccccc3)CC2)o1 (stereo unspecified) on Plasmodium berghei and write it down.
Key: -23.8

Exercise: Report INHIBITION under test system Plasmodium berghei for COCC1c2c(cnn2CC2CC2)CCN1Cc1ccc(C)o1 (stereo unspecified) .
Key: -52.7

Exercise: Under Plasmodium berghei, report INHIBITION for CC(C)C1CN(C(=O)c2cccs2)CCS1 (stereo unspecified)
Key: 29.5

Exercise: Report value only: INHIBITION, Plasmodium berghei, COc1cccc(-c2nc(CC(=O)NC3(C)CCS(=O)(=O)C3)cs2)c1 (stereo unspecified)
Key: -10.1

Exercise: Find INHIBITION for "CN1N=C(C(=O)N(Cc2ccco2)C2CC2)CCC1=O" on Plasmodium berghei and write it down.
Key: 19

Exercise: System Plasmodium berghei. Read-out INHIBITION. Item "CCN(CC)C(=O)Cn1cc(-c2nc(-c3ccccc3C)no2)nn1" . Report value.
Key: -19.1

Exercise: Specify the recorded INHIBITION for "COCCC(=O)N1C[C@H]2CCC[C@@]2(COC)C1" , system: Plasmodium berghei.
Key: 24.6

Exercise: Specify the recorded INHIBITION for "CCCc1cc(C(=O)NCCC2=CCCCC2)[nH]n1" , system: Plasmodium berghei.
Key: -73.5

Exercise: Please tell me the measured INHIBITION for "CCNC(=O)[C@@H]1C[C@H](NC(=O)c2ccc(C)s2)CN1Cc1ccc(C)o1" ; system: Plasmodium berghei.
Key: 68.9

Exercise: Give measured INHIBITION for CC(C)c1nccn1CC(=O)Nc1ccnn1C(C)C(C)C (stereo unspecified) (Plasmodium berghei).
Key: -5.51

Exercise: Fill in: INHIBITION on Plasmodium berghei, entry "CN(C)CCN(Cc1ccc(C#N)cc1)C(=O)c1ccn(C)c(=O)c1"
Key: 8.38

Exercise: Tell me INHIBITION of "CC(C)c1cc(NC2CCN(C(=O)N3CCCC3)CC2)ncn1" when tested on Plasmodium berghei.
Key: 74.7

Exercise: Look up and report measured INHIBITION (Plasmodium berghei) for the following compound: COCC1c2c(cnn2CC2CC2)CCN1Cc1ccc(OC)cc1 (stereo unspecified)
Key: 53.1

Exercise: Enter INHIBITION (test system Plasmodium berghei) for CCc1nc(NC2CCCN(C(=O)c3cccs3)C2)c2cnn(C)c2n1 (stereo unspecified)
Key: 32.8

Exercise: Fill in INHIBITION for CC(C)NC(=O)N1CCN(Cc2ccccn2)CC2(CC(=O)N(C)C2)C1 (stereo unspecified) tested with Plasmodium berghei.
Key: 42.4

Exercise: Quote Plasmodium berghei INHIBITION for entry "O=C(NCc1cc(C2CC2)n(C2CCCC2)n1)C1CC1" .
Key: 44.4

Exercise: State, for Plasmodium berghei, measured INHIBITION of the compound listed here: "O=C(N1CCOCC1)N1CCC(Nc2ccncn2)CC1"
Key: 29.4

Exercise: Report measured INHIBITION on Plasmodium berghei; entry: "COCCC1(CNC(=O)Nc2ccc(-n3nccn3)cc2)CCC1"
Key: -23.3

Exercise: Provide the reported INHIBITION (system: Plasmodium berghei) for "COCCC1(CNC(=O)Nc2ccnc(C)c2)CCCC1"
Key: 57.4

Exercise: Write down the reported INHIBITION (system: Plasmodium berghei) of "Cc1cc(C[C@@H]2COC[C@H]2NCc2ccc(C(C)C)cc2)on1"
Key: 28

Exercise: Write down the reported INHIBITION (system: Plasmodium berghei) of "CCOCC(=O)N1C[C@H]2CCC[C@@]2(COC)C1"
Key: -0.284

Exercise: Look up and report measured INHIBITION (Plasmodium berghei) for the following compound: CN(C)C(=O)COCC1CN(S(C)(=O)=O)Cc2ncn(C)c21 (stereo unspecified)
Key: 38.2

Exercise: Quote INHIBITION with test system Plasmodium berghei for CC(=O)N1CCCC1C(=O)NCCOc1c(C)cccc1C (stereo unspecified)
Key: -57.4

Exercise: Give INHIBITION only, for O=C(c1cc(=O)n(-c2ccccc2)[nH]1)N1CCCC(c2ccn[nH]2)C1 (stereo unspecified) , using Plasmodium berghei data.
Key: 55

Exercise: State, for Plasmodium berghei, measured INHIBITION of the compound listed here: CC(O)CN1CCN(C(=O)c2ccn(-c3ccc(F)cc3)n2)CC1 (stereo unspecified)
Key: -7.35

Exercise: Please look at "CCNC(=O)[C@@H]1C[C@@H](NC(=O)c2ccc(C)s2)CN1Cc1ccccn1" and tell me its recorded INHIBITION on Plasmodium berghei.
Key: 18.9

Exercise: Send back Plasmodium berghei INHIBITION of O=C(c1cc(=O)n(-c2ccccc2)[nH]1)N1CCOC(C(F)(F)F)C1 (stereo unspecified) only.
Key: 63.6

Exercise: State measured INHIBITION of the compound "O=C(NCCN1CCc2ccccc21)c1cc(-c2ccc(O)cc2)n[nH]1" with Plasmodium berghei.
Key: 68.9

Exercise: GET INHIBITION | system: Plasmodium berghei | item: COCC1c2c(cnn2CC2CC2)CCN1Cc1ccsc1 (stereo unspecified)
Key: -37.9

Exercise: System Plasmodium berghei. Read-out INHIBITION. Item "CSCC[C@H](NC(C)=O)c1nc(CCc2ccccc2)n[nH]1" . Report value.
Key: -47.9

Exercise: Report measured INHIBITION on Plasmodium berghei; entry: "COC[C@@]12CCC[C@@H]1CN(C(=O)COC1CCCC1)C2"
Key: 32.5

Exercise: Name the value of INHIBITION reported for "CCn1nc(C)c(-c2cncn2CCN(C)C2CCCC2)c1C" when tested on Plasmodium berghei.
Key: 27.6

Exercise: Under Plasmodium berghei: report INHIBITION of "CC(=O)N1CCC[C@@H](NCc2cccc(F)c2)[C@@H]1c1ccc(C)s1" .
Key: -32.2

Exercise: Retrieve INHIBITION on Plasmodium berghei; query "CSC(C)(C)CNC(=O)NCc1cccc(-n2cncn2)c1"
Key: -17.9

Exercise: Tell me INHIBITION of "Cc1ccc(-c2cc(C(=O)NCCC3=CCCCC3)[nH]n2)o1" when tested on Plasmodium berghei.
Key: 49.9

Exercise: Please report the measured INHIBITION for "CC(C)NC(=O)[C@H]1C[C@@H]2[C@@H](C1)OCCN2CC1CC1" tested on Plasmodium berghei.
Key: 48.2

Exercise: # assay system Plasmodium berghei: give INHIBITION of Cc1noc2ncc(C(=O)N3CCCC3c3ccsc3)cc12 (stereo unspecified)
Key: -7.35

Exercise: // fetch INHIBITION for CC/N=c1\nc(NCC)nc2n1C(O)(Nc1cc(Cl)ccc1Cl)CS2 (stereo unspecified) ; system: Plasmodium berghei
Key: 56

Exercise: Fetch value of INHIBITION on Plasmodium berghei for "CCNC(=O)[C@@H]1C[C@@H](NC(=O)c2cc(C)on2)CN1Cc1ccccn1" .
Key: 54.8

Exercise: // output INHIBITION; input Cc1nc(Cn2c3c(ccc2=O)CC(N)CC3)cs1 (stereo unspecified) ; system Plasmodium berghei
Key: 9.65

Exercise: Report INHIBITION on Plasmodium berghei for this entry: "COC[C@@]12CCC[C@@H]1CN(C(=O)N1CCCC1)C2"
Key: 18.6

Exercise: Report INHIBITION from Plasmodium berghei testing of "CCc1cnccc1C(=O)NC1CCN(Cc2ccccc2F)CC1"
Key: 23.1

Exercise: Enter INHIBITION (test system Plasmodium berghei) for O=C(c1cnnn1-c1ccccc1)N1CCCC(c2ccn[nH]2)C1 (stereo unspecified)
Key: 12.9

Exercise: Give INHIBITION; test system Plasmodium berghei; compound "CN1CCN(c2nc(O)c3c(-c4ccccn4)ccnc3n2)CC1"
Key: -33.2

Exercise: Fill in INHIBITION for "CN(C)[C@@H]1CCN(S(=O)(=O)C2CC2)[C@H]1Cc1ccccc1" tested with Plasmodium berghei.
Key: 27.5

----------
# System: Plasmodium berghei
# measurementNotes: Screen against P. berghei liver stage (PbLuc), transformed with Luciferase, at 10uM
# Assay type: functional, HepG2
# cond: tested at 10 uM
Out of some 69,000 compounds screened, about 8,600 (12%) showed an effect of 50% or more. The entries come from a sample that favours strong results as a whole.
In plain terms, low INHIBITION, meaning strictly below 40%, gives true (1), and everything else gives false (0).

Exercise: Quick check: does "Fc1cnc(N2CC3(CCN(Cc4ccsc4)C3)C2)nc1" have INHIBITION under 40%?
Key: false (0)

Exercise: For "Cc1ccc2nc(CN3CCN(C4CCCCC4)C(=O)C3)cc(O)c2c1" , is the recorded INHIBITION below the cut-off of 40%?
Key: true (1)

Exercise: Given "COCCNC(=O)[C@H]1C[C@@H]2CCN(Cc3ccncc3)C[C@H]2O1" , is recorded INHIBITION strictly lower than 40%?
Key: true (1)

Exercise: Quick check: does Fc1cccc(-c2nc(CN3CCCC3Cn3cccn3)co2)c1 (stereo not drawn) have INHIBITION under 40%?
Key: true (1)

Exercise: Please state whether INHIBITION is below 40% for "CCc1cnc(N2CC3(CCN(Cc4ccsc4)C3)C2)nc1"
Key: true (1)

Exercise: In plain terms, does CC1=Nc2c(c(O)nn2C(C)C)C(c2cnn(C)c2)S1 (stereo not drawn) come in under 40% for INHIBITION?
Key: true (1)

Exercise: Determine if "Cc1ncncc1C(=O)NCCn1nc2ccccn2c1=O" shows INHIBITION strictly lower than 40%.
Key: true (1)

Exercise: Does "Cc1nccn1CCC1CCN(C(C)C)CC1" have INHIBITION strictly under 40%?
Key: true (1)

Exercise: Please state whether INHIBITION is below 40% for "COCCNC(=O)[C@H]1C[C@@H]2CCN(Cc3nccs3)C[C@H]2O1"
Key: false (0)

Exercise: Does the reported INHIBITION of the following molecule sit strictly below 40%? "c1csc(CN2CC3(CCN(Cc4ccsc4)C3)C2)n1"
Key: true (1)

Exercise: Please check: INHIBITION for "Cc1ccc(C(=O)N2CCC3(CC2)CC(N2CCOCC2)C3)cc1" , strictly under 40% or not?
Key: false (0)

Exercise: Please indicate whether the reported INHIBITION of "CNC(=O)[C@H]1C[C@@H]2CCN(Cc3nccs3)C[C@H]2O1" is strictly below 40%.
Key: true (1)

Exercise: Given "Fc1cnc(N2CCOC3(CCN(Cc4ccsc4)CC3)C2)nc1" , is recorded INHIBITION strictly lower than 40%?
Key: false (0)

Exercise: Record Cc1cnn(CC2CCCN2Cc2coc(-c3ccc(F)cc3)n2)c1 (stereo not drawn) : is its INHIBITION strictly below 40%?
Key: false (0)

Exercise: Find out if reported INHIBITION for Fc1cnc(N2CCCC3(CCN(Cc4ccsc4)C3)C2)nc1 (stereo not drawn) is less than 40%
Key: false (0)

Exercise: Does the reported INHIBITION of "O=C(c1ccc(F)cc1)N1CCC2(CC1)CC(N1CCOCC1)C2" stay below 40%?
Key: true (1)

Exercise: A record lists "CC1CCN(C(=O)[C@@H]2C[C@@H]3CCN(Cc4nccs4)C[C@H]3O2)CC1" . Is its INHIBITION below 40%?
Key: false (0)

Exercise: State whether 40% exceeds INHIBITION recorded for "Cc1ccc2nc(CN3CCC(O)(CN4CCCC4)CC3)cc(O)c2c1" .
Key: false (0)

Exercise: Does this molecule meet the criterion INHIBITION < 40%? "Cc1ccc2nc(CN3CCN(C4CCCC4)C(=O)C3)cc(O)c2c1"
Key: true (1)

Exercise: For CCc1n[nH]c(C2CN(C(=O)c3nc(C)ncc3Cl)CCO2)n1 (stereo not drawn) , is the recorded INHIBITION below the cut-off of 40%?
Key: true (1)

Exercise: Would you kindly verify if INHIBITION of Fc1cccc(-c2nc(CN3CCCC3Cn3cncn3)co2)c1 (stereo not drawn) is strictly less than 40%?
Key: true (1)

Exercise: Check if INHIBITION falls below 40% for c1ccc(N2CCCC3(CCN(Cc4ccsc4)C3)C2)nc1 (stereo not drawn) .
Key: true (1)
